The measurements presented in this section are drawn from patent US20050042318A1.

assayed.system: human oestrogenic receptor alpha (ER-α) (Homo sapiens)
Sequence (P03372 whole entry): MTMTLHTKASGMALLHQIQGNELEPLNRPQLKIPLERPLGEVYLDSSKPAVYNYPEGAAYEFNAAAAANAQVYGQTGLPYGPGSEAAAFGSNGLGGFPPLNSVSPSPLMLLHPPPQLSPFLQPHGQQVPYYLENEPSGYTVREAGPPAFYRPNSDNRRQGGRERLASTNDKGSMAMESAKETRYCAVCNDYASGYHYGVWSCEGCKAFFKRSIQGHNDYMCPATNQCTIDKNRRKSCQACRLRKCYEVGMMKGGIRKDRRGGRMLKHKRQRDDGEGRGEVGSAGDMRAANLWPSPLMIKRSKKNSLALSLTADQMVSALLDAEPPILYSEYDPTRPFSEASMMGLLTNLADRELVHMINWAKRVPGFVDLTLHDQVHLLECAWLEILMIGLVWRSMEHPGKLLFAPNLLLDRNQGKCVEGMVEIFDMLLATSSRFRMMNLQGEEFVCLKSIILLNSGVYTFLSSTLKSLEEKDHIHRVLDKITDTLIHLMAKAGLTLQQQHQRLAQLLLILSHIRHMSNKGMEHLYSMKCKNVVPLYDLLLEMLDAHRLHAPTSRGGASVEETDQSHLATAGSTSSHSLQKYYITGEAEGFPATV
assay.procedure: competitive receptor binding assay, displacement of radioactively labelled oestradiol, ER-α
details: head is a formula; values fit relative potency ER-α / ER-β
Some molecules, each annotated with its measured relative potency [formula] (ratio ER-α to ER-β).

CC(C)=CCc1c(O)cc(O)c2c1O[C@H](c1ccc(O)cc1)CC2=O = 2.72

Request: Reported relative potency [formula] (ratio ER-α to ER-β) for human oestrogenic receptor alpha (ER-α) (Homo sapiens), given COc1cc(O)c(CC=C(C)C)c(O)c1C(=O)/C=C/c1ccc(O)cc1 [Xanthohumol] ?
Result: 0.78

Request: Reported relative potency [formula] (ratio ER-α to ER-β) for human oestrogenic receptor alpha (ER-α) (Homo sapiens), given COc1cc(O)c(CC=C(C)C)c2c1C(=O)CC(c1ccc(O)cc1)O2 (stereo not shown) [Isoxanthohumol, isoxanthohumol] ?
Result: 0.54

Request: Reported relative potency [formula] (ratio ER-α to ER-β) for human oestrogenic receptor alpha (ER-α) (Homo sapiens), given CC(C)=CCc1c(O)cc2c(c1O)C(=O)C[C@@H](c1ccc(O)cc1)O2 ?
Result: 0.37
